assay: Pulmonary retention in isolated perfused rat lung; assay type: in vitro ADME; conditions: rat, IPRL tubes (circuitry), other: intratracheal (IT) via the tracheal cannula, 3 mg/kg, pH 7.4, recovery dose (%) IPRL tubes, IT route, Sham lungs, 2 h; by subtraction from dose
readout-name: recovery at 2 h (%)
Express it in %; write the number only.

Quick one: recovery at 2 h for O=S(=O)(c1cccc2cnccc12)N1CCCNCC1 [plain fasudil, fasudil] ?
7.4

----------
test: Pulmonary retention in isolated perfused rat lung; assay type: in vitro ADME; settings: rat, lung homogenate, other: via the cannulated pulmonary artery, mimicking IV, 3 mg/kg, pH 7.4, recovery dose (%) lung, IV-mimicking route, Sham lungs, 2 h, fasudil 3 mg/kg
readout-name: recovery at 2 h (%)
Express it in %; write the number only.

Quick one: recovery at 2 h for "O=S(=O)(c1cccc2cnccc12)N1CCCNCC1" ?
34.7
